Data provenance is ChEMBL document CHEMBL1152362.

Reported IC50 values follow for various compounds
# System: Alternaria solani
# ASSAY_METHOD_TEXT: Antimicrobial activity against Alternaria solani
# Format: functional, organism-based
Non-standard residues stand in square brackets, D forms with d. Residues, ends and D or L forms follow the SMILES beside them. *: point of attachment. Prolinol = OC[C@@H]1CCCN1*; Aib = CC(C)(N)C(=O)O
PARAMETER: IC50

>>> observed_result("CC[C@@H](C)[C@H](NC(=O)C(C)(C)NC(=O)[C@@H](NC(=O)[C@@H](NC(=O)C(C)(C)NC(C)=O)C(C)C)C(C)C)C(=O)NC(C)(C)C(=O)NC(C)(C)C(=O)N[C@@H](C)C(=O)NC(C)(C)C(=O)N1CCC[C@H]1CO")
"> 100 µg/mL"
>>> observed_result("CC(=O)NC(C)(C)C(=O)NC(C)(C)C(=O)N[C@H](C(=O)NC(C)(C)C(=O)N[C@H](C(=O)NC(C)(C)C(=O)NC(C)(C)C(=O)N[C@@H](C)C(=O)NC(C)(C)C(=O)N1CCC[C@H]1CO)C(C)C)C(C)C [ASPERELINE D] (Ac-[Aib][Aib]V[Aib]V[Aib][Aib]A[Aib]-Prolinol)")
"> 100 µg/mL"
